Assembled from different publications: Ki for Alpha-1D adrenergic receptor (Homo sapiens).
Lab note: cut-off is 200 nM. Strictly less in Ki is True. Exactly 200 nM or more is False.

Q. Strictly below 200 nM in Ki? "Cc1c[nH]c(=O)n(CCCN2CCN(c3ccc(F)cc3OCC(F)(F)F)CC2)c1=O"
A. True

Q. // next record COC(CNC(=O)c1ccc2c(c1)C(=O)N(c1cccc(F)c1)C2=O)CN1CCN(c2ccccc2OC(C)C)CC1 (centres undefined)
A. False

Q. // next record CC(C)Oc1ccccc1N1CCN(C2CCC(N3C(=O)c4cc(Cl)c(Cl)cc4C3=O)CC2)CC1 (centres undefined)
A. True

Q. // next record "COc1cccc(OC)c1OCCNC[C@@H]1COc2cccc(O)c2O1"
A. False

Q. // next record COC(=O)C1=C(C)NC(=O)N(C(=O)NCCCN2CCC(c3ccccc3)CC2)C1c1ccc(F)c(F)c1 (centres undefined)
A. True

Q. // next record "O=C(CCCN1CCC(NC(=O)c2ccccc2)CC1)c1ccccc1"
A. False

Q. // next record COc1cccc2c1S(=O)(=O)CCC2NCCOc1cc(F)ccc1F (centres undefined)
A. True

Q. // next record "CS(=O)(=O)Nc1ccc2c(c1)OC1(CCN(CCc3ccccn3)CC1)CC2=O"
A. False

Q. // next record CC(C)Oc1ccccc1N1CCN(CC(O)CNC(=O)c2ccc3c(c2)C(=O)N(c2ccccc2)C3=O)CC1 (centres undefined)
A. True

Q. // next record COc1ccccc1OCCNC[C@H]1OCCO[C@H]1c1ccccc1 (relative stereo)
A. True

Q. // next record "CC(C)Oc1ccccc1N1CCN(CCNC(=O)CN2CCCCCC2=O)CC1"
A. False

Q. // next record "CC(C)Oc1ccccc1N1CCN(Cc2nc(CN3C(=O)CC4(CCCC4)CC3=O)co2)CC1"
A. False

Q. // next record "CN(CCN1C(=O)CC2(CCCC2)CC1=O)CCN(C)c1cc(Cl)ccc1Cl"
A. True

Q. // next record "COc1cccc(OC)c1OCCNC[C@H]1COc2cccc(OC)c2O1.Cl"
A. True

Q. // next record "CNc1ccc2c(c1)[C@H](NCCOc1cc(F)ccc1F)CCS2(=O)=O"
A. True

Q. // next record "CC(C)Oc1ccccc1N1CCN([C@H]2CC[C@@H](NS(=O)(=O)c3cc(Cl)ccc3F)CC2)CC1"
A. True

Q. // next record "COc1ccccc1N1CCN(CCn2c(=O)[nH]c3c(sc4ccc(NC(=O)CCCCc5ccccc5)cc43)c2=O)CC1"
A. True

Q. // next record "CC(C)Oc1ccccc1N1CCN(CCN(C)C(=O)CN2CCCCC2=O)CC1"
A. False

Q. // next record "COc1cc2nc(N3CCN(C(=O)c4ccco4)[C@H]4CCCC[C@H]43)nc(N)c2cc1OC"
A. True

###

Assembled from different publications: pKi for Alpha-1D adrenergic receptor (Homo sapiens).
pKi: −log10 of the molar value.
Hi, to clarify the labels: True covers pKi from 7 upward, False covers anything below 7.

Q. Dear colleague, could you confirm whether "COc1cccc(OC)c1OCCNC[C@@H]1COc2cc3ccccc3cc2O1" has pKi at or above 7?
A. False

Q. // next record COc1ccccc1N1CCN(C[C@@H]2CO[C@@](CN3CCCCCC3=O)(c3ccccc3)O2)CC1 (relative stereo)
A. True

Q. // next record "COc1ccc(Cl)cc1N1CCN(CCn2c(=O)[nH]c3c([nH]c4ccccc43)c2=O)CC1"
A. True

Q. // next record "CN(C)CCCOc1ccc(CCNC(=O)c2cc(Br)c[nH]2)cc1Br"
A. False

Q. // next record "COc1ccccc1N1CCN(CCn2c(=O)[nH]c3c(sc4ccc(NC(=O)CCCc5ccccc5)cc43)c2=O)CC1"
A. True

Q. // next record O=C(N(CCN1CCN(c2ccccc2O)CC1)c1ccccn1)C12C3C4C1C1C2C3C41I (centres undefined)
A. False

###

Assembled from different publications: Ki for UniProtKB P25100.
Molecular target: UniProtKB P25100
Sequence (P25100 whole entry): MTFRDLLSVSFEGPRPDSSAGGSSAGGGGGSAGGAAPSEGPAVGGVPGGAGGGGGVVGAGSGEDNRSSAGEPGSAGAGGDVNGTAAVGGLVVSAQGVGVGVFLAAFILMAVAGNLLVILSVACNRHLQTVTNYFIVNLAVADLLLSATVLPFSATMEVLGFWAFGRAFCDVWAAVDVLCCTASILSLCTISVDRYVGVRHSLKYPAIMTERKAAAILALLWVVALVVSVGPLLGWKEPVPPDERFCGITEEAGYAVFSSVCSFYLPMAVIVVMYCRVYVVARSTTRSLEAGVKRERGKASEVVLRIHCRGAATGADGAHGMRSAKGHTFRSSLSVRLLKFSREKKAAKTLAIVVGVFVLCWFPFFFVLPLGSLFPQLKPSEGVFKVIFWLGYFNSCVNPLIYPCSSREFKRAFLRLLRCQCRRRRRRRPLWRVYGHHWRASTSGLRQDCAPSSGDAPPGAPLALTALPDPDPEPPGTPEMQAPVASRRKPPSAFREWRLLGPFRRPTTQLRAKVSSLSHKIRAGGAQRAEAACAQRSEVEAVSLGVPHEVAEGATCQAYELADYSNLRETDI
Respond with the bare value in nM.

Q. Suppose we examine the compound "COc1ccc2ccccc2c1OCCNC[C@@H]1COc2ccccc2O1" ; what Ki value has been reported?
A. 22.4

Q. // next record COc1cccc(OCCNCC2COC(c3ccccc3)(c3ccccc3)O2)c1 (racemic)
A. 57.5

Q. // next record "CS(=O)(=O)c1ccc(Cl)cc1Cn1cc(Cl)cc(C(N)=O)c1=N"
A. 1.1

Q. // next record "CS(=O)(=O)c1ccccc1CCCNCCOc1cc(F)ccc1Cl"
A. 9.1

Q. // next record "COc1cc2nc(N3CCN(C(=O)c4ccc(Br)o4)[C@H]4CCCC[C@H]43)nc(N)c2cc1OC"
A. 1.55

Q. // next record "Cc1[nH]c2ccccc2c1CCN1CCC2(CC1)CC(=O)c1ccc(NS(C)(=O)=O)cc1O2"
A. 115

Q. // next record "CC(=O)c1c(-c2ccccc2)nn(C)c(=O)c1NCCN1CCN(c2ccccc2F)CC1"
A. 0.49

Q. // next record "COc1ccc2c(c1OCCNC[C@@H]1COc3ccccc3O1)CCCC2"
A. 15.8

Q. // next record "CC(C)Oc1ccccc1N1CCN(Cc2cc(CN3CCCCCC3=O)cs2)CC1"
A. 47

Q. // next record "COc1ccc(C)cc1S(=O)(=O)N[C@H]1CC[C@@H](N2CCN(c3ccccc3OC(C)C)CC2)CC1"
A. 7

###

Biological target: Alpha-1D adrenergic receptor (Homo sapiens, UniProt P25100)
Sequence (P25100 whole entry): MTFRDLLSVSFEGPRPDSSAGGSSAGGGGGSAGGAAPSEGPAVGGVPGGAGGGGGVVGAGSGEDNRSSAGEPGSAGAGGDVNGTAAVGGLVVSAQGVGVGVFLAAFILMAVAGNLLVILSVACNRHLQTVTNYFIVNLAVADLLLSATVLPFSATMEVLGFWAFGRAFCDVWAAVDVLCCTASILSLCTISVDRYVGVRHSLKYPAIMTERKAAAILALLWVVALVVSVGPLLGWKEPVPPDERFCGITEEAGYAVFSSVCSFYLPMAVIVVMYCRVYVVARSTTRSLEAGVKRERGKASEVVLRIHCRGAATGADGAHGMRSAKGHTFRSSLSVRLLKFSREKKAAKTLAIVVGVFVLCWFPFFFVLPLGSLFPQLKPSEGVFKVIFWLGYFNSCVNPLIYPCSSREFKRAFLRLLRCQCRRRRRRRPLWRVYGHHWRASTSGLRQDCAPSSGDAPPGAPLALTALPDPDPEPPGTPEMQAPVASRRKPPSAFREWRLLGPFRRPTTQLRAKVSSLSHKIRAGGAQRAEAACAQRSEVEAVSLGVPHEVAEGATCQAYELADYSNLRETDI
Assembled from different publications: Ki for Alpha-1D adrenergic receptor (Homo sapiens, UniProt P25100).
Lab note: write values as number then unit, every time.

Q. Suppose we examine the molecule CCOC(=O)[C@H]1CN(CCCCN2C(=O)c3cc(Cl)ccc3S2(=O)=O)CC[C@@H]1c1ccccc1 (racemic) ; what Ki value has been reported?
A. 320 nM

Q. // next record "COc1cc2nc(N3CCN(C(=O)c4cccs4)[C@H]4CCCC[C@H]43)nc(N)c2cc1OC"
A. 2.34 nM

Q. // next record "COc1cc2nc(N3CCN(C(=O)c4ccc(Br)o4)[C@H]4CCCC[C@@H]43)nc(N)c2cc1OC"
A. 1.55 nM

Q. // next record "COc1ccccc1N1CCN(CCn2c(=O)[nH]c3c(sc4ccc(NC(=O)CCCC(=O)N(C)Cc5ccccc5)cc43)c2=O)CC1"
A. 0.0562 nM

###

Assembled from different publications: log10 Ki for Alpha-1D adrenergic receptor (Homo sapiens).
// do not treat as linear: log10 of Ki, unit nM

Q. Suppose we examine the molecule "CS(=O)(=O)c1ccccc1CCNCCOc1cc(F)ccc1Cl" ; what log10 Ki value has been reported?
A. 0.93

Q. // next record COc1cccc2c1C(NCCOc1cc(F)ccc1F)CCS2(=O)=O (centres undefined)
A. 0.98

Q. // next record "CS(=O)(=O)c1ccccc1CNCCOc1cc(F)ccc1Cl"
A. 0.63

Q. // next record COc1ccccc1N1CCN(C[C@H]2CO[C@](CN3CCCC3=O)(c3ccccc3)O2)CC1 (relative stereo)
A. 1.13

Q. // next record "O=C1CC2(CCCC2)CC(=O)N1CCCCN1CCN(c2cc(Cl)ccc2Cl)CC1"
A. -0.17

Q. // next record "COc1cccc(OC)c1OCCNCCOc1ccccc1OCc1ccc([N+](=O)[O-])cc1"
A. -1.30

Q. // next record CC(C)Oc1ccccc1N1CCN(CC2=NOC(CN3CCCCC3=O)C2)CC1 (centres undefined)
A. 3.18

Q. // next record "COCC1=C(C(=O)OC)[C@H](c2ccc(F)c(F)c2)N(C(=O)N[C@H]2CC[C@H](N3CCC(c4ccccn4)CC3)C2)C(=O)N1"
A. 2.23
